Value source: PubChem BioAssay (NCI)

Test system: SW-620 colon
protocolNotes: NCI tumour cell line growth inhibition, 48 h
valueType: TGI (µM)
State the answer as a number, implicitly in µM.

input: GET /values?readout=TGI&item= `CC1(C)CCC[C@]2(C)[C@@H]1CC[C@@]13O[C@@H]1C1=C(CO)C(=O)O[C@]14O[C@@H]4[C@@H]23`
output: 29.5

input: GET /values?readout=TGI&item= C=C1C(=O)OC(CCCCCCCC)C1C(=O)O (configuration not stated)
output: 30.7

input: GET /values?readout=TGI&item= `CC(C)(C)C#C[P+](c1ccccc1)(c1ccccc1)c1ccccc1`
output: 0.843

* * *

Tested on: SF-295 CNS
protocolNotes: NCI tumour cell line growth inhibition, 48 h
valueType: TGI

input: GET /values?readout=TGI&item= O=C(O)CC(NC(=O)Nc1ccc([N+](=O)[O-])cc1)C(=O)Nc1ccc([N+](=O)[O-])cc1 (configuration not stated)
output: > 100 µM

input: GET /values?readout=TGI&item= `Cc1oc2nc1C(=O)NCc1nc(cs1)C(=O)N[C@H](C(C)C)c1nc(cs1)C(=O)N[C@H]2C`
output: 99.4 µM

input: GET /values?readout=TGI&item= `CN(C)CCCn1cnc2ncccc2c1=O`
output: > 100 µM

* * *

System: COLO 205 colon
protocolNotes: NCI tumour cell line growth inhibition, 48 h
Below, each of the compounds is paired with its reported TGI value.

These solved cases illustrate the format of a correct answer.
INSERT INTO measurements (compound, valuetype, result) VALUES
  ('O=P(O)(O)OC1C(OP(=O)(O)O)C(OP(=O)(O)O)C(OP(=O)(O)O)C(OP(=O)(O)O)C1OP(=O)(O)O (stereo not drawn)', 'TGI', '> 2000 µM'),
  ('CC(=O)NNc1nc(C)c(C(/C=C/c2ccc(/C=C/C(=N\NC(=O)c3ccncc3)c3sc(NNC(C)=O)nc3C)cc2)=N/NC(=O)c2ccncc2)s1', 'TGI', '> 100 µM'),
  ('O=[N+]([O-])c1ccc2c(c1)nc(Cc1ccccc1)n2C[C@@H]1CCCN2CCCCC12 (stereo partly drawn)', 'TGI', '37.4 µM'),
  ('CSC1=Nc2ccccc2-c2nc(-c3ccccc3)cc(-c3ccccc3)c2C1', 'TGI', '> 100 µM'),
  ('C1=C[C@@H]2c3ccc4cnccc4c3NC[C@@H]2C1', 'TGI', '> 100 µM'),
  ('CCC12C=CCN3CC[C@]4(C(=C(C(=O)OC)[C@@H]1Nc1ncnc5c1ncn5C1OC(COC(C)=O)C(OC(C)=O)C1OC(C)=O)Nc1ccccc14)C32 (stereo partly drawn)', 'TGI', '3.48 µM'),
  ('COc1ccc(CN(O)C2C(CO)OC(n3cc(I)c(=O)[nH]c3=O)C2O)cc1 (stereo not drawn)', 'TGI', '> 100 µM');

input: GET /values?readout=TGI&item= `C[C@]12CC[C@H]3[C@@H](CCC4=CC(=O)C=C[C@@]43O)[C@@H]1CCC2=O`
output: > 100 µM

* * *

Test system: IGROV1 ovarian
protocolNotes: NCI tumour cell line growth inhibition, 48 h
Below, each of the compounds is paired with its reported TGI value.

INSERT INTO results (compound, valuetype, result) VALUES
  ('CC(C)(O)Cn1c(=O)c(Oc2ccc(F)cc2F)cc2cnc(NC3CCOCC3)nc21', 'TGI', '> 25 µM'),
  ('COc1ccc(C(=O)c2cc3c(N)c(C(=O)Nc4cccc(Cl)c4)sc3nc2C)cc1', 'TGI', '> 33.3 µM'),
  ('CN(C)CCCn1cnc2ncccc2c1=O', 'TGI', '> 100 µM'),
  ('CCOC(=O)c1cnc2ccc(Cl)cc2c1NCCCN(C)C', 'TGI', '> 100 µM'),
  ('O=C(O)Cc1ccc(Oc2nc3ccccc3nc2-c2cccs2)cc1', 'TGI', '> 100 µM'),
  ('O=C(CCc1cccc(O)c1)NCCc1cccc(O)c1', 'TGI', '> 100 µM'),
  ('O=c1ccc2nc(-c3ccccc3)nn(-c3ccccc3)c-2c1', 'TGI', '3.47 µM'),
  ('COC(=O)c1c(OC(C)=O)ccc2c1c1c(OC(C)=O)c3ccccc3c(OC(C)=O)c1n2Cc1cc(OC)cc(OC)c1', 'TGI', '> 100 µM'),
  ('CN(NC(=O)/C(=C/c1ccc(O)cc1)NC(=O)c1ccccc1)c1ccnc2cc(Cl)ccc12', 'TGI', '34.1 µM'),
  ('Cc1ccc(S(=O)(=O)NC(=O)NC(Cc2c[nH]c3ccccc23)C(=O)O)cc1 (stereo not drawn)', 'TGI', '> 100 µM');

input: // map `O=C(Cn1ccnc1[N+](=O)[O-])NCCO` to recorded TGI (system: IGROV1 ovarian)
output: > 100 µM

input: // map `CN(C)CCCn1c(Cc2ccccc2)nc2cc(C(F)(F)F)ccc21` to recorded TGI (system: IGROV1 ovarian)
output: > 100 µM

input: // map `C[C@]12CC[C@H]3[C@@H](CCC4=CC(=O)C=C[C@@]43O)[C@@H]1CCC2=O` to recorded TGI (system: IGROV1 ovarian)
output: > 100 µM
